Numbers sourced from patent US20230027985A1.

Target: Purified recombinant ADAMTS-7 (rat prodomain/human catalytic domain, SEQ ID No. 01 or 02) (Homo sapiens, UniProt Q9UKP4)
Construct: rat ADAMTS-7 signal peptide + prodomain (rat 1-217, Q1EHB3) (N); 2xStrep tag (C); 6xHis tag (C)
Sequence (Q9UKP4 237-537): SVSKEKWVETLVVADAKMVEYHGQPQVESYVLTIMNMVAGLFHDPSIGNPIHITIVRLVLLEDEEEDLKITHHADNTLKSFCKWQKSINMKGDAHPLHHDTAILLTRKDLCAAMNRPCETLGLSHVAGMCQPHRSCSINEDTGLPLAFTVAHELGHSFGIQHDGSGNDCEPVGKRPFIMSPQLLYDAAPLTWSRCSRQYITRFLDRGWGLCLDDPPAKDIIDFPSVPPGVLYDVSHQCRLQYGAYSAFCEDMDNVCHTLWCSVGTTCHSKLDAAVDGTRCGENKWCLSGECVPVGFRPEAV
Assay: Assay for ADAMTS-7 enzymatic activity (FRET substrate cleavage)
Conditions: FRET substrate SEQ ID No. 11, 120 min at 32° C.; read-out: ADAMTS7-IC50
pIC50: −log10 of the molar value.
test.readout: pIC50

// below: answered compounds
Cc1ncsc1C1(CNC(=O)c2cnn(-c3ccc(F)cc3)n2)NC(=O)NC1=O (racemic) [Example 131] :: 7.43
O=C1NC(=O)C(CNC(=O)c2cnn(-c3ccc(F)cc3)n2)(CC2CC2)N1 (stereo not drawn) [Example 72] :: 6.89
CCCCC1(CNC(=O)c2cnn(-c3ccccc3)n2)NC(=O)NC1=O (stereo not drawn) [Example 78] :: 6.72
O=C1NC(=O)C(CNC(=O)c2cnn(-c3ccc(F)cc3)n2)(C2CCC2)N1 (racemic) [Example 69] :: 7.01

(A) CCCCC1(CNC(=O)c2cnn(-c3ccccc3)n2)NC(=O)NC1=O (racemic) [Example 51]
(B) O=C1NC(=O)[C@](CNC(=O)c2cnn(-c3cc(F)c(F)c(F)c3)n2)(C2CC2)N1 [Example 98]
Please compare: A and B . Report which one has the smaller pIC50 value. Your choice should be expressed through its label.
A
